# cytotoxicity values compiled below
experiment: viability loss of HPDE-C7K cells – cell-based, fluorescence, HTS, primary screen (AID 431);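 note: 0% = DMSO solvent wells and 100% = doxorubicin-treated wells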
experimental_setup: HPDE-C7K KRASV12 cells, Alamar Blue viability, 48 h; at 10 µM; hits give high values
In all, about 63,000 compounds went through this assay and about 1,100 (1.7%) were called active. The entries come from a sample that favours actives as a whole. Potency and affinity values are given separately.
# value in %; strip the unit string

[[record]]
compound = "COc1ccccc1-c1cn(S(=O)(=O)c2ccc(F)cc2)nc1N"
unit_text = "%"
measurement = 2


IN: Give reported cytotoxicity value for Cc1cc(C)n(-c2nnc(C)n2/N=C/c2cc(Br)ccc2OCc2ccccc2)n1
OUT: 65.2

IN: Give reported cytotoxicity value for Cn1c(=O)c2c(nc(NCCCN3CCOCC3)n2Cc2ccc(Cl)c(Cl)c2)n(C)c1=O
OUT: -1.2

IN: Give reported cytotoxicity value for CCOC(=O)C(C)Oc1cccc2c(=O)n(CC(=O)NCc3ccco3)ccc12 (configuration not stated)
OUT: 61.1

IN: Give reported cytotoxicity value for COc1ccc(OC)c(NC(=O)c2cc(-c3ccc(C)cc3O)n[nH]2)c1
OUT: -0.5

IN: Give reported cytotoxicity value for Cn1c(NCCCN2CCOCC2)nc2c1c(=O)n(Cc1ccc(Cl)c(Cl)c1)c(=O)n2C
OUT: 54.6

IN: Give reported cytotoxicity value for CCc1ccccc1S(=O)(=O)Cc1ccc(C(=O)NCC2CCCO2)o1 (configuration not stated)
OUT: -0.8

====

experiment: viability loss of HPDE-C7K cells – cell-based, fluorescence, HTS, primary screen (AID 431);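 note: 0% = DMSO solvent wells and 100% = doxorubicin-treated wells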
experimental_setup: HPDE-C7K KRASV12 cells, Alamar Blue viability, 48 h; at 10 µM; hits give high values
Out of some 63,000 compounds screened, about 1,100 (1.7%) were called active. Many of the other results were omitted from the sample, so actives are more common in it than they were. Results with a measured potency or affinity are listed apart.
cytotoxicity vs 10%: less than gives y; not less than gives n.

Examples from the recorded data:
[[record]]
compound = "Cc1ccc(-c2nnc3ccc(SCC(=O)N4CCCCC4)nn23)cc1"
assigned_class = "y"

[[record]]
compound = "CCSc1ccccc1C(=O)Nc1cc(C)on1"
assigned_class = "y"

[[record]]
compound = "CCCCOc1ccc(C(=O)OC2CC(C)N(C)CC2C)cc1 (stereo not drawn)"
assigned_class = "n"

[[record]]
compound = "CC(C)n1nc(C(=O)Nc2nc3ccc(S(C)(=O)=O)cc3s2)c2ccccc2c1=O"
assigned_class = "n"

[[record]]
compound = "CC(C)(C)c1ccc(-c2nc(C#N)c(NCc3ccncc3)o2)cc1"
assigned_class = "n"

[[record]]
compound = "N#CC1=C2SCN(c3ccc(F)cc3)CN2C(=O)CC1c1cccc(F)c1 (stereo not drawn)"
assigned_class = "y"

[[record]]
compound = "Cn1c(=O)c2c(SCc3ccccn3)nc(-c3ccccc3)nc2n(C)c1=O"
assigned_class = "y"

[[record]]
compound = "CCOC(=O)C1=C(CSc2nc(C)ccc2C#N)OC(N)=C(C#N)C1c1cccc(OC)c1OC (stereo not drawn)"
assigned_class = "n"

[[record]]
compound = "COc1ccc(CNc2oc(-c3ccccc3)nc2C#N)cc1"
assigned_class = "y"

[[record]]
compound = "COc1cc(C2C(C(C)=O)=C(C)Nc3ncnn32)ccc1O (stereo not drawn)"
assigned_class = "y"


Below: the item to evaluate.
IN: Say whether its cytotoxicity is strictly beneath 10%. Entry: N#Cc1nc(-c2ccc(F)cc2)oc1NCc1ccccc1
OUT: y

====

experiment: viability loss of HPDE-C7K cells – cell-based, fluorescence, HTS, primary screen (AID 431);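 note: 0% = DMSO solvent wells and 100% = doxorubicin-treated wells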
experimental_setup: HPDE-C7K KRASV12 cells, Alamar Blue viability, 48 h; at 10 µM; hits give high values
In all, about 63,000 compounds went through this assay and about 1,100 (1.7%) were called active. The sample holds actives, similar compounds and a random draw of the others, so the mix is not that of the screen. Potency and affinity values are given separately.
cytotoxicity vs 50%: less than gives yes (1); not less than gives no (0).

IN: Say whether its cytotoxicity is strictly beneath 50%. Entry: CC(C)Sc1nc(NCc2ccco2)c2c3c(sc2n1)COC(C)(C)C3
OUT: no (0)

IN: Say whether its cytotoxicity is strictly beneath 50%. Entry: CSc1nc(NCc2ccco2)c2c3c(sc2n1)CN(C)CC3
OUT: yes (1)

IN: Say whether its cytotoxicity is strictly beneath 50%. Entry: CC(C)Sc1nc(SCC(=O)NCc2ccco2)c2c3c(sc2n1)COC(C)(C)C3
OUT: yes (1)

IN: Say whether its cytotoxicity is strictly beneath 50%. Entry: CC(C)c1nc2sc3c(SCC(=O)NCc4ccco4)ncnc3c2c2c1CCC2
OUT: yes (1)

====

experiment: viability loss of HPDE-C7K cells – cell-based, fluorescence, HTS, primary screen (AID 431);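 note: 0% = DMSO solvent wells and 100% = doxorubicin-treated wells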
experimental_setup: HPDE-C7K KRASV12 cells, Alamar Blue viability, 48 h; at 10 µM; hits give high values
Screen size: about 63,000 compounds; about 1,100 (1.7%) were called active. The sample holds actives, similar compounds and a random draw of the others, so the mix is not that of the screen. Entries with a potency or affinity are not part of this list.
# cytotoxicity values compiled below
# value in %; strip the unit string

# count of solved cases: 8
[[record]]
compound = "CCOC(=O)CSC1=C(C#N)C(=O)NC(c2ccc(OC)c(OC)c2)S1 (stereo not drawn)"
unit_text = "%"
measurement = 70.5

[[record]]
compound = "COc1ccc(NC(=O)CSC2=C(C#N)C(c3ccco3)C3=C(CCCC3=O)N2)c(OC)c1 (stereo not drawn)"
unit_text = "%"
measurement = -2.7

[[record]]
compound = "CC(C)(C)c1ccc(C(=O)CCCSC2=C(C#N)C(c3ccco3)C3=C(CCCC3=O)N2)cc1 (stereo not drawn)"
unit_text = "%"
measurement = 18.5

[[record]]
compound = "Cc1ccc(NC(=O)c2ccco2)c(NC(=O)c2cccs2)c1"
unit_text = "%"
measurement = -4.8

[[record]]
compound = "Cc1ccc(C)c(OCC(=O)Nc2cc(C)on2)c1"
unit_text = "%"
measurement = 4.9

[[record]]
compound = "CC(=O)c1cc2c(cc1NC(=O)CSc1nnc(C)s1)OCO2"
unit_text = "%"
measurement = 11.3

[[record]]
compound = "COC(=O)C(C(=O)Nc1cc(C)on1)C1CCCCCC1 (stereo not drawn)"
unit_text = "%"
measurement = -4.9

[[record]]
compound = "Cc1cccc2cc(C#N)c(SCC(=O)N3CCC(C)CC3)nc12"
unit_text = "%"
measurement = 2.7


IN: Give reported cytotoxicity value for Cc1cccc2cc(C#N)c(SCCN3CCCCC3)nc12
OUT: 57.1

IN: Give reported cytotoxicity value for Cc1cccc2cc(C#N)c(N3CCN(C)CC3)nc12
OUT: 1.8

IN: Give reported cytotoxicity value for Cc1ccc(C(C)C)c(OCc2nnc3n2CCCCC3)c1
OUT: -8.3

IN: Give reported cytotoxicity value for Cc1ccccc1-n1c(C)nnc1SCC(=O)N1CC(=O)Nc2ccccc21
OUT: -8.9

IN: Give reported cytotoxicity value for Cc1cc(C)c2nc(SCC(=O)N3CCCCC3)c(C#N)cc2c1
OUT: 2.7

====

experiment: viability loss of HPDE-C7K cells – cell-based, fluorescence, HTS, primary screen (AID 431);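 note: 0% = DMSO solvent wells and 100% = doxorubicin-treated wells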
experimental_setup: HPDE-C7K KRASV12 cells, Alamar Blue viability, 48 h; at 10 µM
The whole screen tested about 63,000 compounds, of which about 1,100 (1.7%) were called active.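 The calls were made as follows: active = compounds whose percent cytotoxicity in the single-dose primary screen, scaled between solvent and toxic-drug controls, exceeds 50; inactive = the rest.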 The sample as a whole holds a higher share of actives than the screen did. Results with a measured potency or affinity are listed apart.
Form entry, call: pick from active, inactive

Examples from the recorded data:
[[record]]
compound = "COC(=O)c1cc(-c2c(C)oc3cc(OC(C)C)ccc3c2=O)c(C)o1"
assigned_class = "inactive"

[[record]]
compound = "COc1ccc(S(=O)(=O)Cc2ccc(C(=O)N3CCN(C(=O)c4ccco4)CC3)o2)cc1"
assigned_class = "inactive"

[[record]]
compound = "COc1cc(C2C(C#N)=C(C)NC3=C2C(=O)c2ccccc23)cc(OC)c1OC (stereo not given)"
assigned_class = "active"

[[record]]
compound = "Cc1c(-c2nc(N)nc(Nc3ccc(F)cc3)n2)oc2ccccc12"
assigned_class = "inactive"

[[record]]
compound = "COc1cc(C2C(C#N)=C(C)NC3=C2C(=O)CC(C)(C)C3)cc(OC)c1O (stereo not given)"
assigned_class = "inactive"

[[record]]
compound = "N#Cc1cc(Oc2cccc3cccnc23)c(-n2nnc3ccccc32)cc1C#N"
assigned_class = "active"

[[record]]
compound = "COc1ccc(C2C(C#N)=C(SC)NC3=C2C(=O)CC(C)(C)C3)cc1 (stereo not given)"
assigned_class = "inactive"

[[record]]
compound = "COc1ccccc1Oc1cc(C#N)c(C#N)cc1-n1nnc2ccccc21"
assigned_class = "inactive"

[[record]]
compound = "Cc1c(-c2nc(N)nc(Nc3ccccc3)n2)oc2ccccc12"
assigned_class = "active"


Below: the item to evaluate.
IN: What did the test return for COc1cc(C2C(C#N)=C(C)NC3=C2C(=O)CC(C)(C)C3)ccc1O (stereo not given) ?
OUT: inactive
